# Test System: T1, PDZD7_3, Q9H5P4
# T1 sequence (Q9H5P4 857-944, limits assumed, looked up): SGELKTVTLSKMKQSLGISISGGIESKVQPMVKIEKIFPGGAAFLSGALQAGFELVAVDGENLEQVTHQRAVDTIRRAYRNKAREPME
# Protocol Notes: holdup assay
# Design: key: below the threshold = too weak to quantify, mostly under pKd 3.1 to 4
# Conditions Used: plain residues with an end cap or a label only (N-terminal biotin on a linker: ahx)
Rule: pKd of 4 or more gives Condition met; anything lower gives Condition not met.

INPUT: Is the recorded value of pKd equal to or greater than 4 for this binder? KEYDDELTFF [USH1C, Q9Y6N9]
OUTPUT: Condition not met

INPUT: Reported pKd reaches at least 4 for KDECVIATEV [DLL1, O00548] ?
OUTPUT: Condition met

INPUT: Could you please find out whether AKPQPVDSWV [ARVCF, O00192] has pKd that meets 4 or exceeds it?
OUTPUT: Condition not met

INPUT: Does YNSFLSVTTV [PDZRN3, Q9UPQ7] have a reported pKd of at least 4?
OUTPUT: Condition met

INPUT: Please check the record ADENEQVSAV [RAPGEF6, Q8TEU7] and state if its pKd is at or above 4.
OUTPUT: Condition not met

INPUT: # check: pKd of HSATSVHTSV [MTMR1, Q13613] is greater than or equal to 4
OUTPUT: Condition not met
